The origin of these recorded values is patent US20250205259A1.

Could you please report measured pIC50 for the items listed next?
- Target Of Assay: OXA-48 (Klebsiella pneumoniae)
- Sequence (Q6XEC0 23-265 limits assumed): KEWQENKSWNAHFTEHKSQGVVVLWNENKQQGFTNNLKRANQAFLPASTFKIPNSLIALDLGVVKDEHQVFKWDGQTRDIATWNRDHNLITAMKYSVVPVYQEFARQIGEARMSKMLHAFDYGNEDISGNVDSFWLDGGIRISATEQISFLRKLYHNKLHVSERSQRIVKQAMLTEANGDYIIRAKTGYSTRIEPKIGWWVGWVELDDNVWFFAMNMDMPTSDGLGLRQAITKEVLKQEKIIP
- Procedure Summary: Inhibitory activity on SBL, fluorescent substrate FC-5
- Type: biochemical
- Measurement Conditions: read-out: Inhibitory activity on SBL OXA-48 (IC50 class)
pIC50: −log10 of the molar value.

The reported pIC50 of the molecule NS(=O)(=O)NCc1cnn(Cc2ccc3c(c2C(=O)O)OB(O)CC3)c1 [Compound 36] was > 8.00

The molecule listed as O=C(O)c1c(Cn2cc(CN3CCCC3)nn2)ccc2c1OB(O)CC2 [Compound 5] has a reported pIC50 of 6.00 to 8.00

NC1CN(Cc2cnn(Cc3ccc4c(c3C(=O)O)OB(O)CC4)c2)C1 [Compound 75] has a reported pIC50 of 4.00 to 6.00

Entry N=C(N)N1Cc2cnn(Cc3ccc4c(c3C(=O)O)OB(O)CC4)c2C1 [Compound 67] , pIC50 reported as > 8.00

The reported pIC50 of the molecule Nc1ccc(-c2cn(Cc3ccc4c(c3C(=O)O)OB(O)CC4)nn2)cn1 [Compound 60] was > 8.00

Memo: N=C(N)N1Cc2cn(Cc3ccc4c(c3C(=O)O)OB(O)CC4)nc2C1 [Compound 58] , reported pIC50: > 8.00

For O=C(O)c1c(Cn2ncc3ccccc32)ccc2c1OB(O)CC2 [Compound 22] the molecule record lists pIC50 as > 8.00

The measured pIC50 associated with NCCc1cn(Cc2ccc3c(c2C(=O)O)OB(O)CC3)nn1 [Compound 8] reads 6.00 to 8.00

pIC50 reported for this molecule O=C(O)c1c(Cn2cc3c(n2)CNC3)ccc2c1OB(O)CC2 [Compound 56-Na] : > 8.00

For reference, reported pIC50 for O=C(O)c1c(CNc2nncs2)ccc2c1OB(O)CC2 [Comparative example 1 compound 64, reference compound] stands at 6.00 to 8.00

Data point: O=C(O)c1c(CN2C[C@H](O)CC2=O)ccc2c1OB(O)CC2 [Compound 44] ; pIC50 = 6.00 to 8.00

Form: molecule = C[C@H]1Cc2ccc(Cn3ccnn3)c(C(=O)O)c2OB1O [Compound 29] ; pIC50 = 6.00 to 8.00

// N#Cc1cccn1Cc1ccc2c(c1C(=O)O)OB(O)CC2 [Compound 25] : pIC50 value = 6.00 to 8.00

Recorded pIC50 (molecule NS(=O)(=O)N1Cc2cn(Cc3ccc4c(c3C(=O)O)OB(O)CC4)nc2C1 [Compound 57] ): > 8.00

What the record says about Nc1ncc(-c2cn(Cc3ccc4c(c3C(=O)O)OB(O)CC4)nn2)cn1 [Compound 61] : pIC50 is > 8.00

// sample O=C(O)c1c(Cn2ncc3c2CNC3)ccc2c1OB(O)CC2 [Compound 66] , its pIC50 was > 8.00

For C[n+]1ccn(Cc2ccc3c(c2C(=O)O)OB(O)CC3)n1 [Compound 3] the molecule record lists pIC50 as 6.00 to 8.00

pIC50 reported for this molecule CO[C@H]1Cc2ccc(Cn3ccnn3)c(C(=O)O)c2OB1O [Compound 30] : 6.00 to 8.00

The molecule listed as CC(C)(N)C#Cc1cnn(Cc2ccc3c(c2C(=O)O)OB(O)CC3)c1 [Compound 46] has a reported pIC50 of 6.00 to 8.00

Sure, the documented pIC50 for NCc1cnn(Cc2ccc3c(c2C(=O)O)OB(O)[C@@H](Sc2nncs2)C3)c1 [Compound 68] is 4.00 to 6.00

pIC50 reported for this molecule N#Cc1ccn(Cc2ccc3c(c2C(=O)O)OB(O)CC3)c1 [Compound 71] : 6.00 to 8.00

// recorded pIC50 for N=C(N)NCc1ccc(-c2cn(Cc3ccc4c(c3C(=O)O)OB(O)CC4)nn2)cc1 [Compound 64] : > 8.00

pIC50 reading for O=C(O)c1c(Cn2cccn2)ccc2c1OB(O)CC2 [Compound 14] : > 8.00

The recorded pIC50 for entry N=C(N)N1CC(c2cn(Cc3ccc4c(c3C(=O)O)OB(O)CC4)nn2)C1 [Compound 49] equals 6.00 to 8.00

Short answer for CO[C@H]1Cc2ccc(Cn3cc(CN)cn3)c(C(=O)O)c2OB1O [Compound 69] : pIC50 was 4.00 to 6.00

Record summary for O=C(O)c1c(Cn2cc3c(n2)CNC3)ccc2c1OB(O)[C@H]1C[C@@H]21 [Compound 54] : reported pIC50 = 6.00 to 8.00

// field: pIC50; key: O=C(O)c1c(Cn2cncn2)ccc2c1OB(O)CC2 [Compound 13] ; value = > 8.00
